Source: ChEMBL document CHEMBL6109162

biological target: Bromodomain-containing protein 4 (Homo sapiens, UniProt O60885); assay: Inhibition of BRD4 (unknown origin) by FRET assay
READOUT_NAME: pIC50
// scale note: pIC50 = -log10(conc_M); give the bare number

Given CCS(=O)(=O)Nc1ccc(Oc2ccc(F)cc2F)c(-c2cn(C)c(=O)c3[nH]ccc23)c1 [MIVEBRESIB] , state its recorded pIC50.
8.82
